# Tested on: AG173 E. coli AAC(3)-IV
# assay-notes: Antibacterial activity, clinical isolate AG173
# Assay type: cell-based
Recorded Antibacterial activity AG173 E. coli AAC(3)-IV by entry

Below, each entry is followed by its recorded Antibacterial activity AG173 E. coli AAC(3)-IV result.
CNC1C(OC2OC(CO)C(N)C(O)C2O)OC2CC(N)C(OC3C(N)CC(NC(=O)C(O)CCN)C(O)C3O)OC2C1O (stereo not drawn); 2-4
CNC1C(OC2OC(CO)C(N)C(O)C2O)OC2CC(N)C(OC3C(N)CC(N)C(O)C3OC3OC(CO)C(O)C3O)OC2C1O (stereo not drawn); 16-32

Turning to the following compound.
Lookup: Check the records and state Antibacterial activity AG173 E. coli AAC(3)-IV for CNC1C(OC2OC(CO)C(N)C(O)C2O)OC2CC(N)C(OC3C(N)CC(N)C(O)C3OC3OC(CO)C(OC4OC(CN)C(O)C(O)C4N)C3O)OC2C1O (stereo not drawn)
Found: 1-2
